Biological target: T1, Iron regulatory protein 1 (IRP1) (UniProt P21399 1-889)
T1 sequence: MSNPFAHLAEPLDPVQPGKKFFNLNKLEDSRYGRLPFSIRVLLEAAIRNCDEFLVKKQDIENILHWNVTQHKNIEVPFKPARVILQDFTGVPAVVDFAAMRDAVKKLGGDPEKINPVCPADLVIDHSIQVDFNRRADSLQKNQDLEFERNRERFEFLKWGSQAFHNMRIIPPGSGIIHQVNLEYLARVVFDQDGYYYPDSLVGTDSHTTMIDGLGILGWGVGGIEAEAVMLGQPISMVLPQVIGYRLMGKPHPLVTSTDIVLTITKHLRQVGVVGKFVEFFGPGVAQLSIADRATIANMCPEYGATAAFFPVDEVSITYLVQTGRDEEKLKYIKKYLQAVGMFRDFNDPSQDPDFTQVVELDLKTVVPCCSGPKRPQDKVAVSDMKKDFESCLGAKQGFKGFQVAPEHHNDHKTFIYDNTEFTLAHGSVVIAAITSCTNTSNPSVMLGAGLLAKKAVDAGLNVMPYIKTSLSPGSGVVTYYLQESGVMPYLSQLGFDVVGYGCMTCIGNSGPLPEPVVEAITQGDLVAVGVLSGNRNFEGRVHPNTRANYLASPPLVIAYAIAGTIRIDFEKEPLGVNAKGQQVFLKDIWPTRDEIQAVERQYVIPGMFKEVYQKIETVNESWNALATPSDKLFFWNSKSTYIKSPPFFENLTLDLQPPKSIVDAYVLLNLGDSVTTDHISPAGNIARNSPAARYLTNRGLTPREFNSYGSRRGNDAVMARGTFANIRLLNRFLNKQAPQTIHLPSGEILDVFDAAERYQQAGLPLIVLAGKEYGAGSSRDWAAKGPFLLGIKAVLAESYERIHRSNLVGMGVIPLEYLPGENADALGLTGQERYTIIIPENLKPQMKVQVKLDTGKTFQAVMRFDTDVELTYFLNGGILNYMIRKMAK
Experiment: fluorescence quenching (intrinsic); 15 °C, no Fe; 20 mM HEPES pH 7.4, 100 mM KCl, 1 mM MgCl2; 50 nM IRP1, 0-200 nM RNA; 15 min; 25 °C (5-30 °C series); Fe2+ 50 uM anaerobic where stated
Conditions: protein: commercial; hairpin (stem-loop), melted and reannealed
pKd: −log10 of the molar value.
recorded_endpoint: pKd

1) ACUGGGAGUGGCCAUUCGACGACAGUGUGGUGUAAAGGAAUUCAUUAGCC (structured_RNA) [alpha-Syn IRE RNA (SNCA 5'-UTR)] ... 7.56
